compounds and their reported pEC50
target: hNPRA (Homo sapiens, UniProt P16066); assay: NPRA Functional Cell Assay (cGMP HTRF, NPRA HEK JumpIn stable cells); details: cGMP production, 1 hour at 37° C., 10-point dose response
Sequence (P16066 33-1061): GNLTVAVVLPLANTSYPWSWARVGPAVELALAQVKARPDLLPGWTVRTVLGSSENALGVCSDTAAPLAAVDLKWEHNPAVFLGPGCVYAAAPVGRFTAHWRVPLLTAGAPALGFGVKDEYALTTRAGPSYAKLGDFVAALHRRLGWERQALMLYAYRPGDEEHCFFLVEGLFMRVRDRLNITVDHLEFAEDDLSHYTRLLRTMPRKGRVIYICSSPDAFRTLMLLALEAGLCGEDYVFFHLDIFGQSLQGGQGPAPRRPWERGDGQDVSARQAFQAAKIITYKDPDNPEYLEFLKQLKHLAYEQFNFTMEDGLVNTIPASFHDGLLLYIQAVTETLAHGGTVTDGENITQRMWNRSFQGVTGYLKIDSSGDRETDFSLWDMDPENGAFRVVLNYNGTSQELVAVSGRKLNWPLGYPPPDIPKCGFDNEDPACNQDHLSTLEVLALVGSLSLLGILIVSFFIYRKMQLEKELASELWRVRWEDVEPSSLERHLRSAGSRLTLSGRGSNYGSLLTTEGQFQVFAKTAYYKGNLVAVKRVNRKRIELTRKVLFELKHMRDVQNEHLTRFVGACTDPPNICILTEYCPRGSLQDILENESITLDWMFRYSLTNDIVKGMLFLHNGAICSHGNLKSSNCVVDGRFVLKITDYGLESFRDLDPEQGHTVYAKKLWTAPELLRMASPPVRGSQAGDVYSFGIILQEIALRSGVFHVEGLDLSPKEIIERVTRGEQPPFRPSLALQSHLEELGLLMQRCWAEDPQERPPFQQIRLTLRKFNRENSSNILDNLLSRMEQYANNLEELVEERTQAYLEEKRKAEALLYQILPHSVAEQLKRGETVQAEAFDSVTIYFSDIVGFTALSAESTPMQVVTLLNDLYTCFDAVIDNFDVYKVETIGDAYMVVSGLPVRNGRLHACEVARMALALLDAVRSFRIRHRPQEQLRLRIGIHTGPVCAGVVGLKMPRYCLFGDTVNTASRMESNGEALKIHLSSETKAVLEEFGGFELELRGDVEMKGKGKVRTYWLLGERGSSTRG
Just the number, please; pEC50 means minus log10 of the concentration in mol/L.

Examples with their reported pEC50 follow.
Input: Give recorded pEC50 with hNPRA (Homo sapiens, UniProt P16066) for the following compound: Cn1nccc1-c1ccc([C@@H](CCN2CCCCC2)NC(=O)c2cc3cc4c(nc3s2)CC[C@H](C(C)(C)C)C4)cc1 (racemic) [Example 4]
Output: 6.12

Input: Give recorded pEC50 with hNPRA (Homo sapiens, UniProt P16066) for the following compound: CN(C)S(=O)(=O)Nc1ccc([C@@H](CCN2CC[C@@H](O)C2)NC(=O)c2nc3cc4c(nc3s2)CC[C@H](C(C)(C)C)C4)cn1 (racemic) [Example 211, 2,2,2-trifluoroacetate]
Output: 6.12

New cases:
Input: Give recorded pEC50 with hNPRA (Homo sapiens, UniProt P16066) for the following compound: COCCN(C)CC[C@@H](NC(=O)c1nc2cc3c(nc2s1)CC[C@H](C(C)(C)C)C3)c1ccc(NS(=O)(=O)N(C)C)nc1 (racemic) [Example 210]
Output: 6.12

Input: Give recorded pEC50 with hNPRA (Homo sapiens, UniProt P16066) for the following compound: CC1(O)CN(CC[C@@H](NC(=O)c2cc3cc4c(nc3s2)CC[C@H](C(C)(C)C)C4)c2cccc(NS(C)(=O)=O)c2)C1 (racemic) [Example 16]
Output: 5.95

Input: Give recorded pEC50 with hNPRA (Homo sapiens, UniProt P16066) for the following compound: CN1CCC(NC(=O)c2cccc([C@@H](CCN3CCC(C(=O)O)CC3)NC(=O)c3nc4cc5c(nc4s3)CC[C@H](C(C)(C)C)C5)c2)C1 (mixture of isomers) [Example 121]
Output: 6.65

Input: Give recorded pEC50 with hNPRA (Homo sapiens, UniProt P16066) for the following compound: CN(C)CC[C@@H](NC(=O)c1nc2cc3c(nc2s1)CC[C@H](C(C)(C)C)C3)c1ccc(-c2ccc(=O)[nH]c2)cc1 (racemic) [Example 76]
Output: 6.18

Input: Give recorded pEC50 with hNPRA (Homo sapiens, UniProt P16066) for the following compound: CC(C)(C)[C@H]1CCc2nc3sc(C(=O)N[C@H](CCN4CCC(O)CC4)c4cccc(C(=O)NCC5CCNC5)c4)nc3cc2C1 (mixture of isomers) [Example 152]
Output: 6.16

Input: Give recorded pEC50 with hNPRA (Homo sapiens, UniProt P16066) for the following compound: CC(C)(C)[C@H]1CCc2nc3sc(C(=O)N[C@H](CCN4CCC(O)CC4)c4ccc(N5CCC(O)C5)nc4)nc3cc2C1 (mixture of isomers) [Example 190]
Output: 5.72

Input: Give recorded pEC50 with hNPRA (Homo sapiens, UniProt P16066) for the following compound: CC(C)(C)[C@H]1CCc2nc3sc(C(=O)N[C@H](CCN4CCC(O)CC4)c4cccc(C(=O)N5CC6(CCCNC6)C5)c4)nc3cc2C1 (racemic) [Example 131]
Output: 7.01

Input: Give recorded pEC50 with hNPRA (Homo sapiens, UniProt P16066) for the following compound: CN1CC(NC(=O)c2cccc([C@@H](CCNCC(=O)O)NC(=O)c3nc4cc5c(nc4s3)CC[C@H](C(C)(C)C)C5)c2)C1 (racemic) [Example 115]
Output: 5.85

Input: Give recorded pEC50 with hNPRA (Homo sapiens, UniProt P16066) for the following compound: CC(C)(C)[C@H]1CCc2nc3sc(C(=O)N[C@H](CCN4CCC(O)C4)c4ccccc4)cc3cc2C1 (stereo partly drawn) [Example 261]
Output: 5.20

Input: Give recorded pEC50 with hNPRA (Homo sapiens, UniProt P16066) for the following compound: CC(C)(C)[C@H]1CCc2nc3sc(C(=O)N[C@H](CCN4CCC(O)CC4)c4cccc(NC(=O)CCN)c4)nc3cc2C1 (racemic) [Example 119]
Output: 5.92

Each recorded value in this set is attributed to patent US12440496B2.
